assay: Naringenin concentration in milk of breastfeeding mothers on naringenin-restricted diet, before and after 250 ml red grapefruit juice (HPLC after deconjugation); assay type: in vivo; settings: female, human, in vivo, Mean naringenin concentration in human milk
MEASURED_ATTRIBUTE: concentration at -36 h (nM)
A number alone suffices; assume nM.

stdin: What value of measured concentration at -36 h is listed for O=C1C[C@@H](c2ccc(O)cc2)Oc2cc(O)cc(O)c21 [naringenin] ?
stdout: 910

* * *

test: Naringenin concentration in milk of breastfeeding mothers on naringenin-restricted diet, before and after 250 ml red grapefruit juice (HPLC after deconjugation); format: in vivo; conditions: female, human, in vivo, Mean naringenin concentration in human milk
MEASURED_ATTRIBUTE: concentration at 1 h (nM)
A number alone suffices; assume nM.

stdin: What value of measured concentration at 1 h is listed for O=C1C[C@@H](c2ccc(O)cc2)Oc2cc(O)cc(O)c21 ?
stdout: 773
